Target entity: NS5B protein of HCV, genotype 1b (Hepatitis C virus genotype 1b, UniProt Q9WMX2)
Construct: The protein was expressed with an 18 amino acid C-terminal truncation to enhance the solubility
Sequence (Q9WMX2 2420-2992): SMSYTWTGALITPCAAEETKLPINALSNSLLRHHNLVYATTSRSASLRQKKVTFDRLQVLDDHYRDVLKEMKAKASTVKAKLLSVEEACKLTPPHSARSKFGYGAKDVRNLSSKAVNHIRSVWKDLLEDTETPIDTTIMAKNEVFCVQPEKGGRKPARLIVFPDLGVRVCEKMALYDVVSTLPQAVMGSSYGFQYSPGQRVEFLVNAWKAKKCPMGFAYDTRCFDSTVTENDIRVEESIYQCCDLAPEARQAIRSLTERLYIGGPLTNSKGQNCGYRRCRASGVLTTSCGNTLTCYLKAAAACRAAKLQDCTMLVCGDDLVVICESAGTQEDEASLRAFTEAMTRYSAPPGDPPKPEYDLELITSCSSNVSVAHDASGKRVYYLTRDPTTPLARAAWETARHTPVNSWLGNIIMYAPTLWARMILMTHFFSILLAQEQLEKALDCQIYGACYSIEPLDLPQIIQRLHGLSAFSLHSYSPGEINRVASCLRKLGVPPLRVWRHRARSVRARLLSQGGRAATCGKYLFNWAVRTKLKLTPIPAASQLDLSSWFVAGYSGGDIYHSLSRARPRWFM
Experiment summary: HCV NS5B RdRp enzyme assay
Assay context: 7 nM NS5B enzyme, 4 hours at 30° C.
Measurement kind: IC50 (µM)
Enter your answer as a number in µM; do not include the unit.

Q: Request - read-out IC50 | tested on NS5B protein of HCV, genotype 1b (Hepatitis C virus genotype 1b, UniProt Q9WMX2) | compound `COc1cc(C)c(-c2ccc3oc(-c4ccc(F)cc4)c(-c4ncc[nH]4)c3c2F)cc1C(=O)NC1(c2ncccn2)CC1`
A: 0.03

Where do the numbers come from? From patent US9303020B2.
